test system: SVG-A cells; assay: Total cell number (DAPI+ events) / cytotoxicity in the JCV infectivity assay; conditions: 10 uM; cytotoxicity, DAPI count
Response field label takes YES when % Inhibition total Cell Number @10 uM is strictly below 10% and NO in all other cases.

Problem: Field: below-cutoff. Rule: recorded % Inhibition total Cell Number @10 uM strictly less than 10%. Subject: COc1ccc([C@@H](C)C(=O)c2ccc(O)cc2O)cc1 [(R)-ANGOLENSIN]
Solution: YES

Problem: Quick check: % Inhibition total Cell Number @10 uM of COc1cc(C)c(C(=O)Oc2cc(C)c(C(=O)O)c(O)c2C)c(OC)c1C under 10%?
Solution: NO

Problem: Dear reviewer, please state whether CCOc1nc2cccc(C(=O)OC(C)OC(=O)OC3CCCCC3)c2n1Cc1ccc(-c2ccccc2-c2nn[nH]n2)cc1 (centres unmarked) has % Inhibition total Cell Number @10 uM strictly beneath 10%.
Solution: NO

Problem: Field: below-cutoff. Rule: recorded % Inhibition total Cell Number @10 uM strictly less than 10%. Subject: C[C@H](N)CO
Solution: YES

Problem: Is it true that % Inhibition total Cell Number @10 uM reported for COc1ccc(-c2cc(=O)c3c(O)c(OC)c(OC)c(OC)c3o2)cc1OC is less than 10%?
Solution: NO
